Values were extracted from patent US8779004B2.

# TEST: Short-term storage stability of emulsions (drug conc., pH, particle size)
# Format: physicochemical
# CONDITION_CONTEXT: emulsion; DEA 0.05%; 40° C.; 4 weeks
OBSERVATION_TYPE: D(4, 3)

Record summary for C[C@@H](NCCCc1cccc(C(F)(F)F)c1)c1cccc2ccccc12 : reported D(4, 3) = 0.4 µm

====

# TEST: Short-term storage stability of emulsions (drug conc., pH, particle size)
# Assay type: physicochemical
# CONDITION_CONTEXT: emulsion; TRIS 5 mM; 5° C.; 0 weeks
OBSERVATION_TYPE: D(4, 3) (µm)
The response must be a number in µm with no trailing unit.

response.value for C[C@@H](NCCCc1cccc(C(F)(F)F)c1)c1cccc2ccccc12 (field: D(4, 3)) = 0.31

====

# TEST: Short-term storage stability of emulsions (drug conc., pH, particle size)
# Format: physicochemical
# CONDITION_CONTEXT: emulsion; TRIS 5 mM; 40° C.; 12 weeks
OBSERVATION_TYPE: D(4, 3) (µm)
The figure you give is taken to be in µm; do not add the unit.

The measured D(4, 3) associated with C[C@@H](NCCCc1cccc(C(F)(F)F)c1)c1cccc2ccccc12 reads 0.36

====

# TEST: Short-term storage stability of emulsions (drug conc., pH, particle size)
# Type: physicochemical
# CONDITION_CONTEXT: emulsion; TRIS 20 mM; 40° C.; 8 weeks
OBSERVATION_TYPE: D(4, 3) (µm)
Use µm as the unit, but write only the number.

Briefly, D(4, 3) measured for C[C@@H](NCCCc1cccc(C(F)(F)F)c1)c1cccc2ccccc12 : 0.29

====

# TEST: Short-term storage stability of emulsions (drug conc., pH, particle size)
# Format: physicochemical
# CONDITION_CONTEXT: emulsion; DEA 0.30%; 5° C.; 2 weeks
OBSERVATION_TYPE: D(4, 3) (µm)
Kindly answer with a numeric value in µm, unit omitted.

Field D(4, 3) (entry C[C@@H](NCCCc1cccc(C(F)(F)F)c1)c1cccc2ccccc12 [Cinacalcet] ) reads 0.35

====

# TEST: Short-term storage stability of emulsions (drug conc., pH, particle size)
# Assay type: physicochemical
# CONDITION_CONTEXT: emulsion; TRIS 5 mM; 40° C.; 6 weeks
OBSERVATION_TYPE: D(4, 3) (µm)
Numbers only here, please. The scale is µm.

Quick note, D(4, 3) for C[C@@H](NCCCc1cccc(C(F)(F)F)c1)c1cccc2ccccc12 landed at 0.47

====

# TEST: Short-term storage stability of emulsions (drug conc., pH, particle size)
# Format: physicochemical
# CONDITION_CONTEXT: emulsion; TRIS 20 mM; 40° C.; 0 weeks
OBSERVATION_TYPE: D(4, 3) (µm)
Give a bare numeral; the unit µm is implied.

Briefly, D(4, 3) measured for C[C@@H](NCCCc1cccc(C(F)(F)F)c1)c1cccc2ccccc12 : 0.29

====

# TEST: pH and particle size of crude cinacalcet emulsions with different oils and phospholipids
# Type: physicochemical
# CONDITION_CONTEXT: crude emulsion; SBO 20%; 1% Purified Egg Lecithin
OBSERVATION_TYPE: D(4, 3) (µm)
Reply with just the number (in µm).

# compound C[C@@H](NCCCc1cccc(C(F)(F)F)c1)c1cccc2ccccc12 ; its D(4, 3) = 1.42

====

# TEST: Short-term storage stability of emulsions (drug conc., pH, particle size)
# Type: physicochemical
# CONDITION_CONTEXT: emulsion; TRIS 20 mM; 5° C.; 2 weeks
OBSERVATION_TYPE: D(4, 3) (µm)
Give the number; µm is assumed, so skip it.

D(4, 3) recorded for this compound, C[C@@H](NCCCc1cccc(C(F)(F)F)c1)c1cccc2ccccc12 , is 0.29

====

# TEST: pH and particle size of crude cinacalcet emulsions with different oils and phospholipids
# Assay type: physicochemical
# CONDITION_CONTEXT: crude emulsion; STG 20%; 1% Purified Egg Lecithin
OBSERVATION_TYPE: D(4, 3) (µm)
Supply the numeric figure in µm, leaving out any unit text.

# compound C[C@@H](NCCCc1cccc(C(F)(F)F)c1)c1cccc2ccccc12 [Cinacalcet] ; its D(4, 3) = 0.84

====

# TEST: Solubility of calcimimetics in oil phases (RP-HPLC)
# Format: physicochemical
# CONDITION_CONTEXT: Structured Triglycerides (oil phase), oil or lipid, thermodynamic from solid; Structured Triglycerides; no lecithin
OBSERVATION_TYPE: solubility at 18 h

Memo: C[C@@H](NCCCc1cccc(C(F)(F)F)c1)c1cccc2ccccc12 [Cinacalcet] , reported solubility at 18 h: > 368 mg/mL

====

# TEST: Short-term storage stability of emulsions (drug conc., pH, particle size)
# Format: physicochemical
# CONDITION_CONTEXT: emulsion; TRIS 5 mM; 40° C.; 2 weeks
OBSERVATION_TYPE: D(4, 3) (µm)
Note: unit µm is implicit; provide only the numeric part.

Short answer for C[C@@H](NCCCc1cccc(C(F)(F)F)c1)c1cccc2ccccc12 : D(4, 3) was 0.31

====

# TEST: Solubility of calcimimetics in oil phases (RP-HPLC)
# Assay type: physicochemical
# CONDITION_CONTEXT: Long Chain Triglycerides (oil phase), oil or lipid, thermodynamic from solid; Long Chain Triglycerides; no lecithin
OBSERVATION_TYPE: solubility at 18 h

Given item C[C@@H](NCCCc1cccc(C(F)(F)F)c1)c1cccc2ccccc12 [Cinacalcet] , the value recorded as its solubility at 18 h is > 340 mg/mL

====

# TEST: Short-term storage stability of emulsions (drug conc., pH, particle size)
# Format: physicochemical
# CONDITION_CONTEXT: emulsion; DEA 0.05%; 5° C.; 6 weeks
OBSERVATION_TYPE: D(4, 3) (µm)
Respond numerically; units are µm and should not be typed.

Sample C[C@@H](NCCCc1cccc(C(F)(F)F)c1)c1cccc2ccccc12 ; D(4, 3) observed: 0.76

====

# TEST: pH and particle size of crude cinacalcet emulsions with different oils and phospholipids
# Type: physicochemical
# CONDITION_CONTEXT: crude emulsion; STG 20%; 2% Purified Egg Lecithin
OBSERVATION_TYPE: D(4, 3) (µm)
Answer in µm, number only, no unit symbol.

The compound C[C@@H](NCCCc1cccc(C(F)(F)F)c1)c1cccc2ccccc12 showed D(4, 3) equal to 1.18

====

# TEST: Short-term storage stability of emulsions (drug conc., pH, particle size)
# Format: physicochemical
# CONDITION_CONTEXT: emulsion; TRIS 5 mM; 40° C.; 4 weeks
OBSERVATION_TYPE: D(4, 3) (µm)
Write the number in µm without appending the unit.

Lab note: C[C@@H](NCCCc1cccc(C(F)(F)F)c1)c1cccc2ccccc12 [Cinacalcet] gave D(4, 3) of 0.31

====

# TEST: Short-term storage stability of emulsions (drug conc., pH, particle size)
# Type: physicochemical
# CONDITION_CONTEXT: emulsion; TRIS 5 mM; 5° C.; 2 weeks
# Description: This Example illustrates the effect of the storage temperature on short-term stability of the formulations of the invention as measured by pH and the size of the droplets. The results of short term stability of cinacalcet at different temperatures and varying TRIS buffer concentrations are presented in Table 8. Cinacalcet was stable in the emulsion formulation over 12 weeks. The pH of the emulsion is lower over time for both placebo and cinacalcet emulsions. […]
OBSERVATION_TYPE: D(4, 3)
Answer format reminder: number followed by unit.

Entry C[C@@H](NCCCc1cccc(C(F)(F)F)c1)c1cccc2ccccc12 [Cinacalcet] ; D(4, 3) = 0.31 µm

====

# TEST: Solubility of calcimimetics in oil phases (RP-HPLC)
# Format: physicochemical
# CONDITION_CONTEXT: Structured Triglycerides (oil phase) with soy lecithin, oil or lipid, thermodynamic from solid; Structured Triglycerides; Soy lecithin
OBSERVATION_TYPE: solubility at 18 h

Recorded solubility at 18 h (compound C[C@@H](NCCCc1cccc(C(F)(F)F)c1)c1cccc2ccccc12 ): > 317 mg/mL

====

# TEST: pH and particle size of crude cinacalcet emulsions with different oils and phospholipids
# Format: physicochemical
# CONDITION_CONTEXT: crude emulsion; MCT 5%; % Purified Soy Lecithin
OBSERVATION_TYPE: D(4, 3) (µm)
Dear colleague, please return just the value in µm, with no unit written.

Entry under test: C[C@@H](NCCCc1cccc(C(F)(F)F)c1)c1cccc2ccccc12 . Its D(4, 3) was 0.32

====

# TEST: Short-term storage stability of emulsions (drug conc., pH, particle size)
# Type: physicochemical
# CONDITION_CONTEXT: emulsion; TRIS 20 mM; 5° C.; 12 weeks
OBSERVATION_TYPE: D(4, 3)
Numeric answer plus unit only.

So, C[C@@H](NCCCc1cccc(C(F)(F)F)c1)c1cccc2ccccc12 ? Its D(4, 3) was 0.29 µm
